test: chemical genetic growth profiling, strain panel (AID 1159580);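 note: tested at 20 µM; growth read once vehicle control cultures reached saturation at 30 °C; 1 = growth at the plate median or of vehicle wells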; conditions: S. cerevisiae deletion strains, growth OD, locus YKL203C, strain TOR2, stronger effect = lower value
Screen size: about 5,500 compounds; about 2,000 (36%) were called active. About 18% were inconclusive and are not listed. The list shows a part of the results.
Classify: true when normalized growth is strictly less than 0.9; false when normalized growth is not.

Some solved entries appear below for comparison.
# record-smiles, class
rows = [
    ("O=C(c1ccc(Cl)cc1)N1CCN(c2ccc(C(F)(F)F)cn2)CC1", "false"),
    ("N#CC(C#N)=NNc1ccc(-n2ccc(C(F)(F)F)n2)cc1", "true"),
    ("Cc1oc(-c2ccc(Cl)cc2)cc1C(=O)N1CCN(c2ccc(C(F)(F)F)cn2)CC1", "false"),
    ("N/C(=N/OC(=O)c1ccccc1Cl)c1ccc2nonc2c1", "false"),
    ("Oc1ccc(-n2nnnc2SCc2ccc(OC(F)(F)F)cc2)cc1", "true"),
    ("Nc1ccc(N2CCN(c3ccc(C(F)(F)F)cn3)CC2)nc1", "false"),
    ("O=C(Nc1ccc(OC(F)(F)F)cc1)Nc1cncc(C(F)(F)F)c1", "false"),
    ("NNC(=O)COc1ccc(C2SCCS2)cc1", "true"),
    ("N/C(=N/OC(=O)c1ccccc1Cl)c1cccc(CS(=O)(=O)c2ccc(Cl)cc2)c1", "false"),
]

Could you now consider this next compound?
Given S=C(NCc1ccco1)Nc1ccc(Oc2ccc(Cl)cc2)cc1 , is recorded normalized growth strictly lower than 0.9?
false

====

assay: chemical genetic growth profiling, strain panel (AID 1159580);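 note: tested at 20 µM; growth read once vehicle control cultures reached saturation at 30 °C; 1 = growth at the plate median or of vehicle wells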; conditions: S. cerevisiae deletion strains, growth OD, locus YOR061W, strain CKA2, stronger effect = lower value
The whole screen tested about 5,500 compounds, of which about 2,000 (36%) were called active. Not shown: some 18% with an inconclusive outcome. This is one part of the list.
result-type: normalized growth

# molecule, result-type, reported
rows = [
    ("COc1ccc2[nH]cc(CCNC(C)=O)c2c1", "normalized growth", "1.01 (inactive)"),
    ("CCC(=O)O[C@H]1CCC2C3CCc4cc(O)ccc4C3CC[C@@]21C (stereo partly drawn)", "normalized growth", "0.935 (inactive)"),
    ("c1ccc2c(c1)[nH]c1cnccc12", "normalized growth", "1.01 (inactive)"),
]

Any idea what its normalized growth is? The molecule is N#C/C(=N/Nc1ccc(Cl)cc1)C(=O)C1CC1
0.81 (inactive)

Any idea what its normalized growth is? The molecule is CCCCC(=O)O[C@H]1CCC2C3CCc4cc(O)ccc4C3CC[C@@]21C (stereo partly drawn)
0.962 (inactive)

Any idea what its normalized growth is? The molecule is N#CC(C#N)=NNc1ccc(-n2ccc(C(F)(F)F)n2)cc1
0.568 (active)

Any idea what its normalized growth is? The molecule is COc1cc(O)c(C)c(O)c1
1.01 (inactive)

Any idea what its normalized growth is? The molecule is COc1c(O)cc(O)cc1O
1.01 (inactive)

====

assay: chemical genetic growth profiling, strain panel (AID 1159580);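 note: tested at 20 µM; growth read once vehicle control cultures reached saturation at 30 °C; 1 = growth at the plate median or of vehicle wells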; conditions: S. cerevisiae deletion strains, growth OD, locus YLR403W, strain SFP1
Among all 5,500 compounds or so, about 2,000 (36%) were called active. About 18% were inconclusive and are not listed. Cut-off read from the data, not from the text of the source: active = normalized growth mostly below about 0.91 (no sharp cut-off); inconclusive = no clear call, values can overlap the other calls; inactive = mostly above about 0.92. This is one part of the list.
Answer with one of the outcomes active, inactive

Some solved entries appear below for comparison.
# compound, class
records = [
    ("Cc1nc([N+](=O)[O-])cn1CC(=O)c1ccc(Cl)cc1", "inactive"),
    ("CC(=O)Oc1ccc2c(=O)c(Oc3ccc(Cl)cc3)c(C)oc2c1", "inactive"),
    ("CCCCc1ccc(N=CNO)c(C)c1", "active"),
    ("CCC1(c2ccccc2)OC(c2cc(Cl)cc(Cl)c2O)Nc2ccccc21 (stereo unspecified)", "active"),
    ("Cc1nc(C(F)(F)F)ccc1-c1nnc(SC(=O)c2ccc(Cl)cc2)o1", "inactive"),
    ("Cc1nc(C(F)(F)F)ccc1C(=O)Sc1nnc(-c2ccc(C(F)(F)F)nc2C)o1", "inactive"),
    ("O=C(Nc1ccc(Cl)cc1)c1csc([N+](=O)[O-])c1", "inactive"),
    ("COC(=O)c1ccc(Oc2c(C(F)(F)F)oc3cc(O)ccc3c2=O)cc1", "inactive"),
]

Would you mind telling me which call this test gave O=C(NNc1c(Cl)cccc1Cl)c1ccc([N+](=O)[O-])o1 ?
inactive

Would you mind telling me which call this test gave CCOC(=O)C(NC(C)=O)(Nc1ccc(F)c(Cl)c1)C(F)(F)F (stereo unspecified) ?
inactive

Would you mind telling me which call this test gave N#C/C(=C\c1ccc(C(F)(F)F)cc1)c1ccc(O)cc1 ?
active
